Sourced from the supplement of paper PMC10567573

Listed here: items and their measured protein stability index.
B1: MYOZ1 (parent)
chain: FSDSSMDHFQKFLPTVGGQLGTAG

Variants of: B1
Assay: protein stability index of a GFP-peptide fusion (GPS, HEK-293T) (PSI 1-6); higher = more stable;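 further: lentivirally expressed fusions sorted by FACS into six bins by GFP to DsRed ratio, PSI derived from sequencing read proportions per bin multiplied by bin number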
Settings: c terminus: a fixed tail appended
outcome-measure: protein stability index

> print(dat)
                  polymer.sequence  observed
1   FSDSSMSHFQKFLPTVGGQLGTAG [D7S]      2.56
2  FSDSSMDHFQKFLPTEGGQLGTAG [V16E]      4.23
3  FSDSSMDHFSKFLPTVGGQLGTAG [Q10S]      2.07
4  FSDSSMDHFQKFLFTVGGQLGTAG [P14F]      2.83
5  FSDSSMDHFQKFLPWVGGQLGTAG [T15W]      1.33
6  FSDSSMDHFQKFLPCVGGQLGTAG [T15C]      2.33
7  FSDSSMDHFQKFLMTVGGQLGTAG [P14M]      2.68
